B1: MLH1 (parent)
chain: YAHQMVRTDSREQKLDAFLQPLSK

variants of: B1; assay: protein stability index of a GFP-peptide fusion (GPS, HEK-293T) (PSI 1-6); higher = more stable; conditions: c terminus: a fixed tail appended;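 further: lentivirally expressed fusions sorted by FACS into six bins by GFP to DsRed ratio, PSI derived from sequencing read proportions per bin multiplied by bin number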
property_label: protein stability index

Check out these entries, answers already filled in.
YAHQMVRTDSREIKLDAFLQPLSK [Q13I]
1.94
YAHQMVRTDSREQKLDAFLQPLSD [K24D]
3.26
YAHQMVRTDSREQKLDMFLQPLSK [A17M]
2.45
YAHQMVRTDSREQKLDFFLQPLSK [A17F]
1.88

In plain terms, YAHQMVRTDSREQKLDAELQPLSK [F18E] has a documented protein stability index of 3.12

In plain terms, YAHQMVRTDSREQKLDAFLQWLSK [P21W] has a documented protein stability index of 2.4

In plain terms, YAHQMVRTDSREQKLDAFLQPASK [L22A] has a documented protein stability index of 2.59

In plain terms, YGHQMVRTDSREQKLDAFLQPLSK [A2G] has a documented protein stability index of 3.19

In plain terms, YRHQMVRTDSREQKLDAFLQPLSK [A2R] has a documented protein stability index of 3.12

The measurements presented in this section are drawn from the supplement of paper PMC10567573.
